molecular target: Skp1-Cdc4 complex (yeast, UniProt P07834 1-779; P52286 1-194, limits assumed); construct: Purified complex (Gst removed by TEV, size exclusion) for fluorescence polarization and SPOTS arrays; also called Cdc4/Skp1; cdc4/skp1 complex; test: fluorescence polarization, 5 nM fluorescein-labeled peptide, Cdc4/Skp1 titrated
Sequence (P07834 whole entry, chain 1 of 2): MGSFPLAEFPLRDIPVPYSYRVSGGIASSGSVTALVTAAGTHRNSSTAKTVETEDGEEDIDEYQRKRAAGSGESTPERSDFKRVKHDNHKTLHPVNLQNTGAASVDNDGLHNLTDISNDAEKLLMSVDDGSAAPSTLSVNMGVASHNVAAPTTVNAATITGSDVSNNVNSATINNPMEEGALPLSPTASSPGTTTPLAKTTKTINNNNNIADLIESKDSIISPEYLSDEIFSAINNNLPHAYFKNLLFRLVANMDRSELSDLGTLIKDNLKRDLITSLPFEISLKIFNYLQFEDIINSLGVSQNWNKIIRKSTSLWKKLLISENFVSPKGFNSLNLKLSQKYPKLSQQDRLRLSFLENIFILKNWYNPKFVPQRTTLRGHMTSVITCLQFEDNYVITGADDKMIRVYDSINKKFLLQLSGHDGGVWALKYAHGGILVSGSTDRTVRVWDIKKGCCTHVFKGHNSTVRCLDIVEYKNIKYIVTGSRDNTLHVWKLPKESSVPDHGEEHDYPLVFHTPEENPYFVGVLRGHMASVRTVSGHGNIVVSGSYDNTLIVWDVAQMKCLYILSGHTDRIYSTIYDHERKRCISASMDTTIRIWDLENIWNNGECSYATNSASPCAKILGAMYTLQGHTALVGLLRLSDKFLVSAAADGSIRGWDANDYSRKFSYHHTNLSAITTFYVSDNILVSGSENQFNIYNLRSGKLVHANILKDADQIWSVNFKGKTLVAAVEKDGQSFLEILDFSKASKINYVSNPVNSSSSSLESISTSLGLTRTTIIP
Sequence (P52286 whole entry, chain 2 of 2): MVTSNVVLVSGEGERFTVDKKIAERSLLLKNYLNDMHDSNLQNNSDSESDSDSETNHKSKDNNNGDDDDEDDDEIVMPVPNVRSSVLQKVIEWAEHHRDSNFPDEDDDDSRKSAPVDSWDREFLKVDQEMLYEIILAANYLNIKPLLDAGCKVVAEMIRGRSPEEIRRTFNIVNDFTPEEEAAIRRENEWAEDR
Reported values of log10 Kd for individual entries
Experimental endpoint: log10 Kd (log10 of the value in µM)

Substance	log10 Kd
Gcn4-9mer FLPpTPVLED (peptide)	-0.06
CycEK2-9mer GLLpTPKQSG (peptide)	0.80
CycEK-1-9mer GLKpTPPQSG (peptide)	0.78
CycEK-2-9mer GKLpTPPQSG (peptide)	1.08
CycEK5-9mer GLLpTPPQSK (peptide)	0.38
Cdc 16 peptide LSKNLLpTPQEEWD	-0.05
CycEK3-9mer GLLpTPPKSG (peptide)	0.71
CycEK4-9mer GLLpTPPQKG (peptide)	0.63
